From: PubChem BioAssay (NCI)

System: HCC-2998 colon
protocol_description: NCI-60 one-dose screen, 48 h
condition: 10 µM unless noted
About 83,000 compounds went through this panel and 20% of them were active in at least one assay; those are over-represented in the sample as a whole. Activity calls are given as the source filed them. How the source made its calls: active means growth percent below 10; inactive means the rest.
Returns: one label drawn from label 1 for active, label 0 for inactive

Q) Record lookup: outcome of this test for C=CC(=O)N1CC2(CC(n3nc(-c4ccc(Oc5ccccc5)cc4)c4c(N)ncnc43)C2)C1 ?
A) label 0

Q) Record lookup: outcome of this test for CCC(C)[C@H]1O[C@]2(CC[C@@H]1C)C[C@@H]1C[C@@H](C/C=C(\C)[C@@H](OC3C[C@H](OC)C(O[C@H]4C[C@H](OC)[C@@H](O)[C@H](C)O4)[C@H](C)O3)[C@@H](C)/C=C/C=C3\CO[C@@H]4[C@H](O)C(C)=C[C@@H](C(=O)O1)[C@]34O)O2 (some centres not stated) ?
A) label 1

Q) Record lookup: outcome of this test for CNc1ccc(Br)cc1-c1n[nH]c(=O)[nH]c1=O ?
A) label 0

Q) Record lookup: outcome of this test for C=C[C@H]1C[C@@H]2C[C@@H]3[C@H]4C/C=C\C(=O)NCCCC5NC(=O)C(=C(O)/C=C/[C@@H]4CC(=O)[C@H]3[C@@H]2[C@H]1C)C5=O (some centres not stated) ?
A) label 1

Q) Record lookup: outcome of this test for Oc1ccc(Cl)cc1CNc1nc2ccccc2[nH]1 ?
A) label 0

Q) Record lookup: outcome of this test for CC(C)(C)CC(C)(C)N(CSc1ccc(Cl)cc1)CSc1ccc(Cl)cc1 ?
A) label 0

Q) Record lookup: outcome of this test for COc1cc(CNCCN2C(=O)c3ccc4c5c(ccc(c35)C2=O)C(=O)N(CCNCc2cc(OC)c(OC)c(OC)c2)C4=O)cc(OC)c1OC ?
A) label 1
